The reported numbers originate from patent US20140087995A1.

Listing of entries alongside the reported IC50.
Target: T1, human amylin receptor (human, UniProt P30988 25-474; O60896 24-148, limits assumed)
T1 construct: whole, on cells; Used as cell membranes prepared from the Amylin 3(a)/CRE-luc BHK cells (Assay V); also called hAmylin-R; hAmylinR
T1 sequence (looked up) 1: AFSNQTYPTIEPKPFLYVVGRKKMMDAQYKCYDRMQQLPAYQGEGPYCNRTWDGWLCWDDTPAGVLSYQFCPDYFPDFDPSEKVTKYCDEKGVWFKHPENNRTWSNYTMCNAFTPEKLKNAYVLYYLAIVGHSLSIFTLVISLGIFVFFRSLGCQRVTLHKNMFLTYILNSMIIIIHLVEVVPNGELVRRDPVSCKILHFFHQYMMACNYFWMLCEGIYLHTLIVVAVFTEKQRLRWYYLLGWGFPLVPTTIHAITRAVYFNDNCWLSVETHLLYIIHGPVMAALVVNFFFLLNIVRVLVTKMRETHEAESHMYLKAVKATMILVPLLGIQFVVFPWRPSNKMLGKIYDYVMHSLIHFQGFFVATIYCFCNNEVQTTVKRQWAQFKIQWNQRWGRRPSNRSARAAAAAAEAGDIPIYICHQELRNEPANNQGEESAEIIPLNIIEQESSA
T1 sequence (looked up) 2: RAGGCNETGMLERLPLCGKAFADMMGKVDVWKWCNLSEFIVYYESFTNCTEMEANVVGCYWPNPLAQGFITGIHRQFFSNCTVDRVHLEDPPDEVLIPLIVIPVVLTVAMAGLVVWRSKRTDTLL
Experiment: SPA competition vs 125I-rat amylin, membranes of amylin 3(a) receptor BHK cells (Assay V)
Numbered stars: 1 amine (or outer) side, 2 acyl side, 3 side chain; on linkers, the order of the positions; unused ones are H or OH. Bridge positions count the residues as written; N and C are the ends. * marks the point of attachment. C20 diacid = O=C(O)CCCCCCCCCCCCCCCCCCC(=O)*; γGlu = O=C(O)[C@H](CCC(=O)[*:2])N[*:1]

BINDER	IC50, pM
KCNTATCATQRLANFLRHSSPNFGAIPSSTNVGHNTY (C20 diacid-gGlu on alpha amino group of the N-terminal residue; Cys2-Cys7 disulfide and C-terminal amide as in h-amylin, also called compound 40) [N^α1-[(4S)-4-carboxy-4-(19-carboxynonadecanoylamino)butanoyl]-[Arg17,Pro21,Pro27,His34]-h-amylin]	549
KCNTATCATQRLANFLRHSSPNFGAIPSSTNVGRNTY (C20 diacid-gGlu on alpha amino group of the N-terminal residue; Cys2-Cys7 disulfide and C-terminal amide as in h-amylin, also called compound 39) [N^α1-[(4S)-4-carboxy-4-(19-carboxynonadecanoylamino)butanoyl]-[Arg17,Pro21,Pro27,Arg34]-h-amylin]	665
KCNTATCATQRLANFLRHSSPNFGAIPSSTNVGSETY (C20 diacid-gGlu on alpha amino group of the N-terminal residue; Cys2-Cys7 disulfide and C-terminal amide as in h-amylin, also called compound 23) [N^α1-[(4S)-4-carboxy-4-(19-carboxynonadecanoylamino)butanoyl]-[Arg17,Pro21,Pro27,Glu35]-h-amylin]	871
{C20 diacid-γGlu}-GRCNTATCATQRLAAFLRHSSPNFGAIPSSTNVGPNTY-NH2 (disulfide 3-8)	114
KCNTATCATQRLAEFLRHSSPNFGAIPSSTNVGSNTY (C20 diacid-gGlu-2xOEG on alpha amino group of the N-terminal residue; Cys2-Cys7 disulfide and C-terminal amide as in h-amylin, also called compound 19)	556
